Test system: Calu-6 (Non-Small Cell Lung Carcinoma);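 note: after 72 h of two-drug dosing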
ASSAY EXPLANATION: Bliss excess, mean over the matrix (fraction); higher = more synergy
Some compounds, each annotated with its measured Bliss excess.

# COMPOUND, Bliss excess
measured = [
    ("CN(CCO)CC[C@H](CSc1ccccc1)Nc1ccc(S(=O)(=O)NC(=O)c2ccc(N3CCC([C@@H](O)c4ccccc4-c4ccc(Cl)cc4)CC3)cc2)cc1S(=O)(=O)C(F)(F)F [AZD4320] + Cc1cc2ncnn2cc1Nc1ncc2c(n1)n(C1CCOCC1)c(=O)n2C [AZD7648] (first compound max 1 µM, 7x7, partner max 10 µM)", -0.0522),
    ("CN(C)CCCOc1ccc(-c2ccc3ncc4c(c3c2)n(C2CCOCC2)c(=O)n4C)cn1 [AZD0156] + C=CCn1c(=O)c2cnc(Nc3ccc(N4CCN(C)CC4)cc3)nc2n1-c1cccc(C(C)(C)O)n1 [AZD1775] (first compound max 1 µM, partner max 1 µM)", -0.0479),
    ("COc1nnc2ccc(N3CCC(c4ccc(OCCN5CCN(C)C(=O)[C@H]5C)cc4)CC3)nn12 [AZD5153] + Cn1cnc2c(F)c(Nc3ccc(Br)cc3Cl)c(C(=O)NOCCO)cc21 [Selumetinib] (first compound max 1 µM, 7x7, partner max 10 µM)", 0.0533),
    ("COc1nnc2ccc(N3CCC(c4ccc(OCCN5CCN(C)C(=O)[C@H]5C)cc4)CC3)nn12 [AZD5153] + CCN(CCO)CCCOc1ccc2c(Nc3cc(CC(=O)Nc4cccc(F)c4)[nH]n3)ncnc2c1 [AZD2811] (first compound max 1 µM, 7x7, partner max 1 µM)", -0.0563),
    ("Cc1c2c(nn1C)CSCc1cc(n(C)n1)CSc1cc(c3ccccc3c1)OCCCc1c(C(=O)O)n(C)c3c-2c(Cl)ccc13 [AZD5991] + Cc1cc2ncnn2cc1Nc1ncc2c(n1)n(C1CCOCC1)c(=O)n2C [AZD7648] (first compound max 1 µM, 7x7, partner max 10 µM)", -0.0338),
    ("Cc1c2c(nn1C)CSCc1cc(n(C)n1)CSc1cc(c3ccccc3c1)OCCCc1c(C(=O)O)n(C)c3c-2c(Cl)ccc13 [AZD5991] + C[C@@H]1COCCN1C2=NC(=NC(=C2)C3(CC3)[S@](=N)(=O)C)C4=C5C=CNC5=NC=C4 [AZD6738] (first compound max 1 µM, 7x7, partner max 10 µM)", 0.0282),
    ("COc1cccc(OCCCN)c1-c1cc(Nc2cnc(C#N)cn2)n[nH]1 [Prexasertib] + C[C@@H]1COCCN1C2=NC(=NC(=C2)C3(CC3)[S@](=N)(=O)C)C4=C5C=CNC5=NC=C4 [AZD6738] (first compound max 1 µM, 7x7, partner max 10 µM)", -0.0852),
]
